TGI listing for selected molecules.
test system: PC-3 prostate; assay: NCI tumour cell line growth inhibition, 48 h

Some solved cases for reference:
# MOLECULE, TGI
data = [
    ("CN(C)CCNC(=O)c1ccc2nc3c(nc2c1)C(=O)c1ccccc1-3", "> 100 µM"),
    ("CC(C)CC(NC(=O)C(CI)Cc1ccccc1)C(=O)Nc1ccccc1 (stereo not given)", "> 100 µM"),
    ("[N-]=[N+]=NC1C(O)C(CO)OC1n1ccc(=O)[nH]c1=O (stereo not given)", "> 875 µM"),
    ("COc1cc2c(c(OC)c1OC)-c1ncc3cc4c(cc3c1C2)OCO4", "> 100 µM"),
    ("COC(=O)c1c(C#N)[nH]c(-c2ccsc2)c1C(=O)OC", "> 100 µM"),
    ("C#COc1cccc(Nc2c(C#N)cnc3ncc(NC(=O)CCl)cc23)c1", "> 62.5 µM"),
]

(Q) Form field: TGI recorded for O=C(NCCCl)N(O)C(=O)Nc1ccccc1 with PC-3 prostate (enter value)
(A) > 100 µM

(Q) Form field: TGI recorded for COc1ccc(-c2coc3c4c(ccc3c2=O)OCO4)cc1OC with PC-3 prostate (enter value)
(A) > 100 µM

(Q) Form field: TGI recorded for O=C1NC(=NCCc2cccc(Cl)c2)S/C1=C\c1ccc2ncccc2c1 with PC-3 prostate (enter value)
(A) > 25 µM

(Q) Form field: TGI recorded for CC1=C(C(=O)Nc2ccc(Cl)c(Cl)c2)C(c2cccc(Oc3ccccc3)c2)NC(=O)N1 (stereo not given) with PC-3 prostate (enter value)
(A) > 50 µM
